B1: OR4K15 (parent)
chain: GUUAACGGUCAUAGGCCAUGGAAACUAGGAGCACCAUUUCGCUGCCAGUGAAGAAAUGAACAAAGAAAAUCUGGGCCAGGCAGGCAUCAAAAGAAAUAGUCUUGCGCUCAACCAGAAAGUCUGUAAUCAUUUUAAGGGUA

# Variants of: B1
# PROCEDURE DETAILS: self-cleavage, relative activity (ratio to wild type); higher = more cleavage; in vitro, sequencing; the parent is a self-cleaving ribozyme
PARAMETER: self-cleavage

{"SEQUENCE STRING": "GUUAACGGUCAAAGGCCAUGGAAACUAGGAGCACCAUUUCGCUGCCAGUGAAGAAAUGAACAAAGAAAAUCUGGGCCAGGCAGGCAUCAAAGGAAAUAGUCUUGCGCUCAACCAGAAAGUCUGUAAUCAUUUUAAGGGUA", "self-cleavage": 1.37}

Fill in self-cleavage for each of the 7 variants listed.
1. GUUAACGGUCAUAGGCCAUGGAAACUAGGAGCACCAUUUCGCUGCCAGUGAAGAAAUGAACAAAGAAAGUCUGGGCCAGGCAGGCAUCAAAAGGAAUAGUCUUGCGCUCAACCAGAAAGUCUGUAAUCAUUUUAAGGGUA
2. GUUAACGGUCGUAGGCCAUGGAAACUAGGAGCACCAUUUCGCUGCCAGUGAAGAAAUGAACAAAGAAAAUCUGGGCCAGGCAGGCAUCAAGAGAAAUAGUCUUGCGCUCAACCAGAAAGUCUGUAAUCAUUUUAAGGGUA
3. GUUAACGGUCAUAGGCCAUGGAAACUAGGAGCACCAUUUCGCUGCCAGUGAAGAAAUGAGCAAAGAAAAUCUGGGCCAGGCAGGCAUCUAAAGAAAUAGUCUUGCGCUCAACCAGAAAGUCUGUAAUCAUUUUAAGGGUA
4. GUUAACGGUCAUAGGCCAUGGAAACUAGGAGCACCAUUUCGCUACCAGUGAAGAAAUGAACAAAGAAAAUCUGGGCCAGGCAGGCAUCAAAAGAAAUAGUCUUGCGCUCAACCAGAAAGUCUGUAAUCAUUUUUAGGGUA
5. GUUAACGGUCAUAGGCCAUGGAAACUGGGAGCACCAUUUCGCUGCCAGUGAAGAAAUGAACAAAGAAAAUCUGGGCCAGGCAGGCAUCAAAAGAAAUAGUCUCGCGCUCAACCAGAAAGUCUGUAAUCAUUUUAAGGGUA
6. GUUAACGGUCAUAGGCCAUGGAAACUAGGAGCACCAUUUCGCUGCCAGUGAAGAAAGGAACAAAGAAAAUCUGGGCCAGGCAGGCAUCAAAAGAAAUAGUCUUGCGCUCAACCAGAAAGUCUGUAAUCACUUUAAGGGUA
7. GUGAACGGUCAUAGGCCAUGGAAACCAGGAGCACCAUUUCGCUGCCAGUGAAGAAAUGAACAAAGAAAAUCUGGGCCAGGCAGGCAUCAAAAGAAAUAGUCUUGCGCUCAACCAGAAAGUCUGUAAUCAUUUUAAGGGUA

1.36
0.73
1.5
0.73
0.76
0.44
0.94

I have 4 variants here; please give me self-cleavage for each one.
1. GUCAACGGUCAUAGGCCAUGGAAACUAGGAGCACCAUUUCGCUGCCAGUGAAGAAAUGAACAAAGAAAAUCUGGGCCAGGCAGGCAUCAAAAGAAAUAGUCUUGCGCUCAACCAGAAAUUCUGUAAUCAUUUUAAGGGUA
2. GUUAACGGUCAUAGGCCAUGGAAACUAGGAGCACCAUUUCGCUGCCAGUGAAGAAAUGAACAAAGAAAAUCUGGGCCAGGCAGGCAUCAAAAGAAAUAGUCUUGCGCUCAGCCAGAAAGUCCGUAAUCAUUUUAAGGGUA
3. GUUAACGGUCAUAGGUCAUGGAAACUAGGAGCACCAUUUCGCUGCCAGUGAAGAAAUGAACAAAGAAAAUCUGGGCCAGGCAGGCAUCAGAAGAAAUAGUCUUGCGCUCAACCAGAAAGUCUGUAAUCAUUUUAAGGGUA
4. GUUAACGGUCAUAGGCCAUGGAAACUAGGAGCACCAUUUCGCUGCCAGUGAAGAAAUGGACAAAGAAAAUCUGGGCCAGGCAGGCAUCAAAAGAAAUAGUCUUGCGCUCAACCAGAAAGUCUGUAAACAUUUUAAGGGUA

[0.99, 0.01, 1.55, 1.82]

// input: 8 variants below; output: self-cleavage for each
1. GUUAACGGUCAUAGGCCAUGGAAACUAGGAGCACCAUUUCGCUGCCAGUGAAGAAAUGAGCAAAGAAAAUCUGGGCCAGGCAGGCAUCAUAAGAAAUAGUCUUGCGCUCAACCAGAAAGUCUGUAAUCAUUUUAAGGGUA
2. GUUAACGGUCAUAGGCCAUGGAAACUAGGAGCACCAUUUCUCUGCCAGUGAAGAAAUGAACAAAGAAAAUCUGGGCCAGGCAGGCAUCGAAAGAAAUAGUCUUGCGCUCAACCAGAAAGUCUGUAAUCAUUUUAAGGGUA
3. GUUAACGGUCAUAGGCCAUGGAAACUAGGAGCACCAUUUCGCUGCCAGUGAAGAAAUGAACAAAGAAGAUCUGGGCCAGGCAGGCAUCAAAAGAAAUAGUCUUGCGCUCAACCAGAAAGUCUGUAAUCAUUUUAGGGGUA
4. GUUAACGGUCAUAGGCCAUGGAAACUAGGAGCACCAUUUCGCUGCCAGUGAAGAAAUGAACAAAGAAAAUCUGGGCCAGGCUGGCAUCAAAAGAAAUAGUCUUGCGCUCAUCCAGAAAGUCUGUAAUCAUUUUAAGGGUA
5. GUUAACGGUCAUAGGCCAUGGAAACUUGGAGCACCAUUCCGCUGCCAGUGAAGAAAUGAACAAAGAAAAUCUGGGCCAGGCAGGCAUCAAAAGAAAUAGUCUUGCGCUCAACCAGAAAGUCUGUAAUCAUUUUAAGGGUA
6. GCUAACGGUCAUAGGCCAUGGAAACUAGGAGCACCAUUUCACUGCCAGUGAAGAAAUGAACAAAGAAAAUCUGGGCCAGGCAGGCAUCAAAAGAAAUAGUCUUGCGCUCAACCAGAAAGUCUGUAAUCAUUUUAAGGGUA
7. GUUAACGGUCAUAGGCCAUGGAAACUAGGAGCACCAUUUCGCAGCCAGUGAAGAAAUGAACAAAGAAAAUCUGGGCCAGGCAGGCAUCAAAAGAAAUAGUCUUGCGCUCAACCAGAAAGUCGGUAAUCAUUUUAAGGGUA
8. GUUAACGGUCAUAGGCCAUGGAAACUAGGAGCACCAUUUCGCUGCCAGUGAAGAAAUGAACAAAGAAAAUCUGGGCCAGGCGGGCAUCAAAAGAAAUAGUCUUGCGCUCAACCAGAAAGUCUGUAAUCAUUUUAAGGGUA

1: 1.84; 2: 2.13; 3: 1.23; 4: 0.04; 5: 0.93; 6: 1.29; 7: 2.29; 8: 0.4

Each recorded value in this set is attributed to the RNAGym collection of RNA variant scans (doi:10.7554/elife.90254).
